# test: self-splicing fitness, log relative to wild type (ln ratio); higher = more splicing; Tetrahymena group I intron in knt gene, E. coli kanamycin selection, DiMSum; sequences stand for … in CUCUCU…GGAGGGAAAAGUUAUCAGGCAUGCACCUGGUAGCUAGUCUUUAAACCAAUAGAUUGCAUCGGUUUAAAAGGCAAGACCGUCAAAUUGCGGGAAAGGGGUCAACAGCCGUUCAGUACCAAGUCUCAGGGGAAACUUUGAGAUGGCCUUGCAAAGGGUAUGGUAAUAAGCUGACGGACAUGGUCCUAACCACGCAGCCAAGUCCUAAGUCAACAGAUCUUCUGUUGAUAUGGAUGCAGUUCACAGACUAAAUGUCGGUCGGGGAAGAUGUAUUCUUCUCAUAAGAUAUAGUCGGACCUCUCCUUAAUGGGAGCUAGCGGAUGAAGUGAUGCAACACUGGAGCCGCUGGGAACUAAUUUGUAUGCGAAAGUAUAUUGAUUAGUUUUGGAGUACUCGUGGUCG;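 further: selection with 25 µg/mL kanamycin versus none on LB agar overnight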
# protocol-conditions: 37 °C
Form field: self-splicing fitness (ln) (one value per entry).

record-sequence: UAUCAGCAAUAUUACGAAAA
self-splicing fitness (ln): -0.123
//
record-sequence: UGUAAGCAAUAUUACGAGAC
self-splicing fitness (ln): -0.552
//
record-sequence: CCCGAGCAAUAUUACGCCGU
self-splicing fitness (ln): -2.69
//
record-sequence: AGGCAGCAAUAUUACGCGUG
self-splicing fitness (ln): -0.717
//
record-sequence: GCGUAGCAAUAUUACGAUGA
self-splicing fitness (ln): 0.16
//
record-sequence: ACAAAGCAAUAUUACGGGUG
self-splicing fitness (ln): -0.593
//
record-sequence: CUGCAGCAAUAUUACGACGU
self-splicing fitness (ln): -2.49
//
record-sequence: GCAUAGCAAUAUUACGGGGU
self-splicing fitness (ln): -1.99
//
record-sequence: CUAUAGCAAUAUUACGGGUU
self-splicing fitness (ln): -1.38
//
record-sequence: CACAAGCAAUAUUACGCUGG
self-splicing fitness (ln): -1.74
//
record-sequence: CAUAAGCAAUAUUACGGCUA
self-splicing fitness (ln): -1.51
//
record-sequence: UUGGAGCAAUAUUACGCUUU
self-splicing fitness (ln): -2.3
//
record-sequence: CGCCAGCAAUAUUACGUCCC
self-splicing fitness (ln): -2.37
//
record-sequence: GGAGAGCAAUAUUACGAGGA
self-splicing fitness (ln): -2.44
//
record-sequence: GAUUAGCAAUAUUACGGACC
self-splicing fitness (ln): -0.379
//
record-sequence: CCCCAGCAAUAUUACGACCG
self-splicing fitness (ln): -1.76

====

# test: self-splicing fitness, log relative to wild type (ln ratio); higher = more splicing; Tetrahymena group I intron in knt gene, E. coli kanamycin selection, DiMSum; sequences stand for … in CUCUCU…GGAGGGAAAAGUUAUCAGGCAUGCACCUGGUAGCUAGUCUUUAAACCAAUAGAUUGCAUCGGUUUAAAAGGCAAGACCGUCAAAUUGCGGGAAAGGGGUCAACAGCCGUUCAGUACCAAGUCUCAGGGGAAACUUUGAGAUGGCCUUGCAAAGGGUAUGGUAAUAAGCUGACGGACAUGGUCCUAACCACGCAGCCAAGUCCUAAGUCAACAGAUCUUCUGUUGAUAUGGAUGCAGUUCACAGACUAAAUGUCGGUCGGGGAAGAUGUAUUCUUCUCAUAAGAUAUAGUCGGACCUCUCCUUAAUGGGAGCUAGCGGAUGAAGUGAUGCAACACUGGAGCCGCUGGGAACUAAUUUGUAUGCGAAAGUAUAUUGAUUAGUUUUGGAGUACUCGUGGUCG
# protocol-conditions: 30 °C
Respond with met for self-splicing fitness (ln) values of -2 and above, not met for values below.

record-sequence: CCAAAGCAAUAUUACGGGCU
category: not met
//
record-sequence: GACGAGCAAUAUUACGCGCU
category: not met
//
record-sequence: UCUCAGCAAUAUUACGGCAC
category: not met
//
record-sequence: GGUUAGCAAUAUUACGUGUU
category: met
//
record-sequence: CUCGAGCAAUAUUACGGGGG
category: not met
//
record-sequence: CCUUAGCAAUAUUACGCUUA
category: not met
//
record-sequence: AGAAAGCAAUAUUACGUACG
category: met
//
record-sequence: AUUGAGCAAUAUUACGAACU
category: met
//
record-sequence: CGAUAGCAAUAUUACGAUCC
category: met
//
record-sequence: UGUAAGCAAUAUUACGUGCC
category: met
//
record-sequence: CCCCAGCAAUAUUACGCUGA
category: not met
//
record-sequence: UUCAAGCAAUAUUACGGCGC
category: met
//
record-sequence: UGUUAGCAAUAUUACGCCUG
category: met
//
record-sequence: GUAAAGCAAUAUUACGUUCU
category: met
//
record-sequence: CCCCAGCAAUAUUACGACGC
category: not met
//
record-sequence: CCGGAGCAAUAUUACGAUCC
category: not met
//
record-sequence: UGUAAGCAAUAUUACGGCCU
category: met
//
record-sequence: GCGCAGCAAUAUUACGUCGC
category: not met
//
record-sequence: CGACAGCAAUAUUACGAGGG
category: not met
//
record-sequence: AUCAAGCAAUAUUACGUGCU
category: not met
//
record-sequence: GAUUAGCAAUAUUACGUCUU
category: met
//
record-sequence: UUUUAGCAAUAUUACGAUUG
category: met
//
record-sequence: AUACAGCAAUAUUACGUCAA
category: not met
//
record-sequence: UGAUAGCAAUAUUACGUAUC
category: not met
//
record-sequence: AGAUAGCAAUAUUACGGUAA
category: met
//
record-sequence: CUAGAGCAAUAUUACGAAGC
category: met
//
record-sequence: GUAGAGCAAUAUUACGUAGC
category: met
//
record-sequence: GAAAAGCAAUAUUACGAGCA
category: met
//
record-sequence: UAAAAGCAAUAUUACGUGGA
category: not met
//
record-sequence: GAGGAGCAAUAUUACGCUCU
category: not met
//
record-sequence: GAGCAGCAAUAUUACGCUAA
category: met
//
record-sequence: GCUAAGCAAUAUUACGAAAG
category: met
//
record-sequence: UAACAGCAAUAUUACGUCAU
category: not met

====

# test: self-splicing fitness, log relative to wild type (ln ratio); higher = more splicing; Tetrahymena group I intron in knt gene, E. coli kanamycin selection, DiMSum; sequences stand for … in CUCUCU…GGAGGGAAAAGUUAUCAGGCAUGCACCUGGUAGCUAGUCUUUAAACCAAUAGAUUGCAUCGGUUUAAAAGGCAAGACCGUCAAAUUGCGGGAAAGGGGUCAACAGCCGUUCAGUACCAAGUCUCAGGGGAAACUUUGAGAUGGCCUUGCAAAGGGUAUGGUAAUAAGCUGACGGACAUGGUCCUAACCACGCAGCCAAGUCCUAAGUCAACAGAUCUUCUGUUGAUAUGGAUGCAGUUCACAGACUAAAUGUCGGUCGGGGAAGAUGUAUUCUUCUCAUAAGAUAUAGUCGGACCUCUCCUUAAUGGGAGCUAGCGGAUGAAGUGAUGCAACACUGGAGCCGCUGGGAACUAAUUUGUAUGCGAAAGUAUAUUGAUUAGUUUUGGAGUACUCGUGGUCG
# protocol-conditions: 37 °C
Form field: self-splicing fitness (ln) (one value per entry).

record-sequence: GUCUAGCAAUAUUACGUAUG
self-splicing fitness (ln): -0.896
//
record-sequence: GGCUAGCAAUAUUACGGAAU
self-splicing fitness (ln): -0.0885
//
record-sequence: AACUAGCAAUAUUACGUAUG
self-splicing fitness (ln): -1.22
//
record-sequence: CCCUAGCAAUAUUACGCCCG
self-splicing fitness (ln): -2.12
//
record-sequence: GCAUAGCAAUAUUACGAAAG
self-splicing fitness (ln): -2.69
//
record-sequence: UACCAGCAAUAUUACGGUCG
self-splicing fitness (ln): 0.485
//
record-sequence: GGGAAGCAAUAUUACGUACA
self-splicing fitness (ln): -0.334
//
record-sequence: GAAAAGCAAUAUUACGAAUG
self-splicing fitness (ln): -1.19
//
record-sequence: AAUAAGCAAUAUUACGCUGA
self-splicing fitness (ln): -1.63
//
record-sequence: GUAUAGCAAUAUUACGUCUA
self-splicing fitness (ln): -1.01
//
record-sequence: AGCGAGCAAUAUUACGGCGA
self-splicing fitness (ln): -0.377
//
record-sequence: CCCCAGCAAUAUUACGAUAU
self-splicing fitness (ln): -1.58
//
record-sequence: AAGGAGCAAUAUUACGGAUG
self-splicing fitness (ln): -3.29
//
record-sequence: AUCGAGCAAUAUUACGUUUA
self-splicing fitness (ln): -2.26
//
record-sequence: CAAGAGCAAUAUUACGAGCA
self-splicing fitness (ln): -2.63
//
record-sequence: GCGCAGCAAUAUUACGAGAU
self-splicing fitness (ln): -0.7
//
record-sequence: CCAGAGCAAUAUUACGCUUU
self-splicing fitness (ln): -1.71
//
record-sequence: CGUGAGCAAUAUUACGAAUU
self-splicing fitness (ln): -0.866
//
record-sequence: CUUUAGCAAUAUUACGAUGU
self-splicing fitness (ln): -2.36
//
record-sequence: UUAAAGCAAUAUUACGCAAA
self-splicing fitness (ln): -0.177
//
record-sequence: UGGGAGCAAUAUUACGUGCA
self-splicing fitness (ln): -0.293
//
record-sequence: CAGUAGCAAUAUUACGUUAA
self-splicing fitness (ln): -3.5
//
record-sequence: ACUCAGCAAUAUUACGUUCA
self-splicing fitness (ln): -0.842
//
record-sequence: CUACAGCAAUAUUACGACUC
self-splicing fitness (ln): -2.7
//
record-sequence: UGUGAGCAAUAUUACGUAGG
self-splicing fitness (ln): -1.5
//
record-sequence: GCAAAGCAAUAUUACGGCCU
self-splicing fitness (ln): -0.967
//
record-sequence: CCUAAGCAAUAUUACGCAGG
self-splicing fitness (ln): -2.37
//
record-sequence: CUCGAGCAAUAUUACGAGGG
self-splicing fitness (ln): -1.83
//
record-sequence: GGCAAGCAAUAUUACGGCUA
self-splicing fitness (ln): 1.23
//
record-sequence: ACCAAGCAAUAUUACGAAGG
self-splicing fitness (ln): -1.09
//
record-sequence: GGCGAGCAAUAUUACGACCA
self-splicing fitness (ln): -1.05
//
record-sequence: AGUAAGCAAUAUUACGGCGU
self-splicing fitness (ln): 0.246
//
record-sequence: CAAAAGCAAUAUUACGUGAU
self-splicing fitness (ln): -2.41
//
record-sequence: CACUAGCAAUAUUACGUAGU
self-splicing fitness (ln): -2.92

Provenance of the data: the supplement of paper PMC7877785
